Assay: pKa, UV-metric method
Assay type: physicochemical
Conditions: Britton-Robinson buffer, pH 1.81
endpointName: pKa
Answer as a number with no unit attached.

According to the records, this molecule "CC(/C=C/C=C(\C)C(=O)O)=C\C=C\C=C(C)\C=C\C=C(/C)C(=O)O" displays pKa of 5.35

###

Experiment: RBC partitioning in rat blood and plasma
Type: in vitro ADME
Conditions: fresh whole blood and reference plasma
endpointName: blood plasma ratio at 60 min, 1000 nM

Input "CC(/C=C/C=C(\C)C(=O)O)=C\C=C\C=C(C)\C=C\C=C(/C)C(=O)O" . Output blood plasma ratio at 60 min, 1000 nM: 0.39
